- Assayed System: Parkinson's disease protein 7 (PARK7/DJ1) (human, UniProt Q99497)
- Sequence (Q99497 whole entry, looked up): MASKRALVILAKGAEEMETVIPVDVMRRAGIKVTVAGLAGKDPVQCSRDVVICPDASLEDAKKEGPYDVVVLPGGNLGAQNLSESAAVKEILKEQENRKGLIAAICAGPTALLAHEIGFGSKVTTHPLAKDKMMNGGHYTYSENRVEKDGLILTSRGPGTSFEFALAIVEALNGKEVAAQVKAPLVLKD
- Assay Comment: primary screen, percent inhibition; higher = more effect of the substance
- Assay Context: 100 µM
- Description: The screen was conducted using the conditions as described above in 1536-well plates (Corning 3724) with a reaction volume of 8 μL per well. The compound library containing 7887 covalent fragments was purchased at Enamine Ltd. and received as 100 mM DMSO stocks in 384 well LDV Echo plates (Labcyte LP-0200). Stock solutions of 0.26 μM PARK7 and 80 nM JYQ-107 were prepared. […] After 2 h incubation, the FP signal was recorded on a BMG Labtech PHERAstar plate reader (λex/em 480/520 nm). […]
Among all 7,900 compounds or so, about 400 (5.1%) showed an effect of 50% or more. The list comes from a sample in which strong results are over-represented; it also holds close analogues and randomly drawn compounds.
Provide the reported Inhibition % of each item.
Entry rule: numbers only, all in %.

IN: Which Inhibition % is listed for Fc1ccc(C2=NOC(CCl)C2)cc1 (centres unmarked) ?
OUT: -2.86

IN: Quick check: Inhibition % of Cc1cc(=O)oc2cc(OCC3CO3)ccc12 (centres unmarked) ?
OUT: 7.44

IN: What value of measured Inhibition % is listed for `NS(=O)(=O)c1cccc(NC(=O)CCCl)c1` ?
OUT: 4.37

IN: Which Inhibition % value belongs to `O=C(CSC(F)(F)F)Nc1cccc(S(=O)(=O)F)c1` ?
OUT: 99.8

IN: Query: Inhibition %; subject: `COc1ccc(CN2CCN(C(=O)CCl)CC2)cc1.Cl`
OUT: 10.6

IN: Entry `Cc1ccccc1CC(=O)NNC(=O)CCl` has what Inhibition %?
OUT: 24

IN: Need Inhibition %, item Nc1cccc(OC2CC(=O)N2)c1 (centres unmarked)
OUT: 18.6

IN: What does the record list as Inhibition % for `O=C(CCl)NC(=O)c1ccco1` ?
OUT: 22.8

IN: # get_value(readout='Inhibition %', item= `Cc1ccc(CN(C)C(=O)CCl)c(C)c1` )
OUT: 65.7

IN: # query: Inhibition % of entry `Cc1ccccc1CCNC(=O)CCl`
OUT: 8.29

IN: Which Inhibition % value belongs to `Cc1cc(C=C(C#N)C(N)=O)c(C)n1C1CC1` ?
OUT: 2.13

IN: Return reported Inhibition %; argument: `CC(C)(C)c1ccc(NC(=O)CCl)cc1`
OUT: 100

IN: Would you kindly share the measured Inhibition % for `O=C(CCl)Nc1cccc(NC(=O)c2ccccc2)c1` ?
OUT: 7.84

IN: Using the record for `CC(C)CC(=O)Nc1ccc(C(=O)CCl)cc1` , report its Inhibition %.
OUT: 3.15

###

- Assayed System: Parkinson's disease protein 7 (PARK7/DJ1) (human, UniProt Q99497)
- Assay Comment: primary screen, percent inhibition; read as competition with a fluorescent probe by fluorescence polarization; higher = more effect of the substance
- Assay Context: 100 µM
Among all 7,900 compounds or so, about 400 (5.1%) showed an effect of 50% or more. Shown is part of a subset that was picked to be rich in strong results.
Would you mind labelling by Inhibition %? At or over 10% is 1.0, under is 0.0.

IN: hey, is Inhibition % for this one >= 10%? `Cc1cccc(N(Cc2ccccc2)C(=O)CCl)c1`
OUT: 0.0

IN: // inclusive: Inhibition % at least 10%? input: `Cc1cc(C)nc(C#N)c1`
OUT: 0.0

IN: Say whether `N#Cc1ccc2[nH]ccc2n1` shows Inhibition % of 10% or more.
OUT: 1.0

IN: Tell me whether Inhibition % is at least 10% here: O=C1OCCC1N1CCOC(c2ccc(Cl)cc2)C1 (stereo not shown)
OUT: 0.0

IN: Assess whether reported Inhibition % for C=CC(=O)N1CCC(C)C(OC)C1 (stereo not shown) sits at 10% or higher.
OUT: 0.0

IN: Is Inhibition % at least 10%? Consider `O=S(=O)(F)c1ccc(S(=O)(=O)Nc2ncccc2Cl)cc1`
OUT: 1.0

IN: Identify whether the reported Inhibition % of the following compound is 10% or greater: `N#Cc1ccc(Cl)c(Cl)n1`
OUT: 0.0

IN: Form field: Inhibition % at least 10%? Entry: `N#CC1(NC(=O)CCl)CCC1`
OUT: 1.0

IN: Identify whether the reported Inhibition % of the following compound is 10% or greater: `C=CC(=O)Nc1ccc(OC)c(F)c1`
OUT: 0.0

IN: Check the entry `COC[C@@H]1C[C@H](OC)CN1C(=O)c1c[nH]c(C#N)c1` : does Inhibition % equal or exceed 10%?
OUT: 0.0

IN: Test whether the compound CC(C(=O)NC1CC1c1ccccc1)N1C(=O)CCC1=O (stereo not shown) records Inhibition % of 10% or higher.
OUT: 1.0

IN: Answer whether Inhibition % of `Cc1ccc(NC(=O)CN2CCSC2=O)cc1C` is greater than or equal to 10%.
OUT: 0.0

IN: # bool: Inhibition % of `CCN(C(=O)CCl)c1ccccc1` >= 10%
OUT: 1.0

IN: Could you verify whether the entry `O=S(=O)(F)c1ccc2ccccc2n1` shows Inhibition % of no less than 10%?
OUT: 1.0

IN: Please check the record CC(OS(C)(=O)=O)C(C)c1ccc2ccccc2n1.Cl (stereo not shown) and state if its Inhibition % is at or above 10%.
OUT: 1.0

IN: In plain terms: is recorded Inhibition % at least 10% for `O=C(CN1CCSC1=O)Nc1ccc2[nH]ncc2c1` ?
OUT: 1.0

IN: Identify whether the reported Inhibition % of the following compound is 10% or greater: `N#Cc1ccc2c(n1)CCCC2`
OUT: 0.0

IN: Confirm if Inhibition % reported for the compound `COc1ccc(Cl)cc1NC(=O)CCl` is 10% or above.
OUT: 1.0

IN: Inhibition % >= 10% for `O=C(CN1CCSC1=O)Nc1ccc(Cl)c(Cl)c1` ?
OUT: 0.0

IN: Is the recorded value of Inhibition % equal to or greater than 10% for this compound? `Cl.NCc1cc(=O)[nH]c(S)n1`
OUT: 1.0

IN: Kindly determine if Inhibition % recorded for `O=c1[nH]c(=O)n(CCC2OCCO2)cc1Cl` is above or exactly 10%.
OUT: 0.0

IN: Does `Cn1ccc(NS(=O)(=O)c2cccc(S(=O)(=O)F)c2)n1` have a reported Inhibition % of at least 10%?
OUT: 1.0

IN: Answer whether Inhibition % of `O=C(O)c1ccoc1CS` is greater than or equal to 10%.
OUT: 1.0

IN: Form field: Inhibition % at least 10%? Entry: `OB(O)c1cccc2c1OCCC2`
OUT: 0.0

IN: Given the entry `O=C(CCl)N(C1CCCC1)C1CC1` , answer whether its Inhibition % meets or surpasses 10%.
OUT: 1.0

IN: Identify whether the reported Inhibition % of the following compound is 10% or greater: `O=C(Nc1ccccc1)NN(C(=O)CCl)c1ccccc1`
OUT: 1.0

IN: Is the recorded value of Inhibition % equal to or greater than 10% for this compound? O=C(CCl)N(C1CCCC1)C1CCS(=O)(=O)C1 (stereo not shown)
OUT: 0.0

IN: Determine whether measured Inhibition % meets or exceeds 10% for `Cc1cscc1NS(=O)(=O)c1cccc(S(=O)(=O)F)c1`
OUT: 1.0

IN: Reported Inhibition % reaches at least 10% for `O=C(CN1CCSC1=O)Nc1cn[nH]c1` ?
OUT: 1.0

IN: Hi team, for `O=C(CCl)N(Cc1ccccc1)c1ccccc1` , is the recorded Inhibition % at or above 10%?
OUT: 1.0

IN: # check: Inhibition % of `O=C(CCl)N(C1CCCCC1)C1CCCCC1` is greater than or equal to 10%
OUT: 0.0
